Give Alpha 2B intrinsic activity (efficacy) for every item shown.
tested target: alpha2B receptor (Homo sapiens)
Construct: expressed in transfected cells; host or cells: NIH-3T3 cells
Sequence (P18089 whole entry): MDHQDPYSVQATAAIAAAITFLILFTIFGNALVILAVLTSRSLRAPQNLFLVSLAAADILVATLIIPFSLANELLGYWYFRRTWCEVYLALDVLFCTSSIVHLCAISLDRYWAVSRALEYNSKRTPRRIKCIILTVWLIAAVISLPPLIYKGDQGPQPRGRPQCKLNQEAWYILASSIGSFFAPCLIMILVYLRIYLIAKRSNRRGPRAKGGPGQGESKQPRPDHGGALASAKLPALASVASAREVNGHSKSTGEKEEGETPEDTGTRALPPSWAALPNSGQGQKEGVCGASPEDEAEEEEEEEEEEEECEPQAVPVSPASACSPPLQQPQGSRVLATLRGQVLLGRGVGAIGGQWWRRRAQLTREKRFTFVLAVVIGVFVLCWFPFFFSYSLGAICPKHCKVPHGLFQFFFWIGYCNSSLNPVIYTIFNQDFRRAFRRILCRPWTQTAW
test name: Receptor Selection and Amplification Technology (RSAT) assay, alpha2B
Type: cell-based
condition set: RSAT; ratio of maximal effect to that of standard full agonist brimonidine (UK14304); value in brackets

q: Which Alpha 2B intrinsic activity (efficacy) is listed for Cc1c(F)cccc1C(c1ccccn1)c1c[nH]cn1 (stereo not shown) ?
a: 1.07

q: Next compound up: Cc1ccccc1C(c1cccnc1)c1c[nH]cn1 (stereo not shown)
a: 0.61

q: Same lookup for Fc1cccc(C(c2cccnc2)c2c[nH]cn2)c1F (stereo not shown) , please.
a: 0.93

q: Moving on to the next compound: c1ccc(C(c2ccccn2)c2c[nH]cn2)cc1 (stereo not shown)
a: 0.87

q: One more compound: c1ccc(C(c2cccnc2)c2c[nH]cn2)cc1 (stereo not shown)
a: 0.72

q: Next entry: c1ccc(C(c2ccncc2)c2c[nH]cn2)cc1 (stereo not shown)
a: 0.69

q: And Cc1cccc(C(c2ccncc2)c2c[nH]cn2)c1C (stereo not shown) ?
a: 1.07

* * *

tested target: alpha2C receptor (Homo sapiens, UniProt P18825)
Construct: expressed in transfected cells; host or cells: NIH-3T3 cells
Sequence (P18825 1-462): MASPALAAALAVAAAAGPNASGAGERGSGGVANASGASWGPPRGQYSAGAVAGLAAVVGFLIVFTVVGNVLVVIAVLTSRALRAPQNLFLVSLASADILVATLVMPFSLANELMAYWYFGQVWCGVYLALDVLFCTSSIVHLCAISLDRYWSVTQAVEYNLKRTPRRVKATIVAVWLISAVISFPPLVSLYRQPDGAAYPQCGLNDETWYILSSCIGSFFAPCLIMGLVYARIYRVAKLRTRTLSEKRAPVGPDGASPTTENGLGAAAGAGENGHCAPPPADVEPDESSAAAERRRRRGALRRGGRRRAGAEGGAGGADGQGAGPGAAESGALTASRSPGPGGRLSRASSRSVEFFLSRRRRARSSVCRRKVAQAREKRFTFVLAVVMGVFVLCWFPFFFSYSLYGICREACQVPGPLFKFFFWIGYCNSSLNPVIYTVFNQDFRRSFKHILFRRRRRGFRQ
test name: Receptor Selection and Amplification Technology (RSAT) assay, alpha2C
Format: cell-based
condition set: RSAT; ratio of maximal effect to that of standard full agonist brimonidine (UK14304); value in brackets
Procedure: Receptor Selection and Amplification Technology (RSAT) Assay The RSAT assay measures a receptor-mediated loss of contact inhibition that results in selective proliferation of receptor-containing cells in a mixed population of confluent cells. The increase in cell number is assessed with an appropriate transfected marker gene such as β-galactosidase, the activity of which can be easily measured in a 96-well format. Receptors that activate the G protein, Gq, elicit this response. […]
quantity name: Alpha 2C intrinsic activity (efficacy)
# answer = number (no unit)

q: Given Fc1c(Cl)cccc1C(c1c[nH]cn1)c1cccs1 (stereo not drawn) , state its recorded Alpha 2C intrinsic activity (efficacy).
a: 0.28

q: Also c1ccc(C(c2ccncc2)c2c[nH]cn2)cc1 (stereo not drawn) , if possible.
a: 0.14

q: For Clc1cccc(C(c2ccccn2)c2c[nH]cn2)c1Cl (stereo not drawn) then?
a: 0.39

q: Try Fc1c(Cl)cccc1C(c1ccncc1)c1cnc[nH]1 (stereo not drawn) next.
a: 0.60

q: Entry Fc1cccc(C(c2ccncc2)c2c[nH]cn2)c1F (stereo not drawn) please
a: 1.02

q: Here is the next molecule: Fc1cccc(C(c2ccncc2)c2c[nH]cn2)c1 (stereo not drawn)
a: 0.23

q: Queued: Fc1cccc(C(c2ccccn2)c2c[nH]cn2)c1F (stereo not drawn)
a: 0.16

q: How about Fc1cccc(C(c2ccccn2)c2c[nH]cn2)c1 (stereo not drawn) ?
a: 0.25

q: Also, Cc1c(Cl)cccc1C(c1ccncc1)c1c[nH]cn1 (stereo not drawn) please.
a: 0.46

q: And what about the molecule Cc1ccccc1C(c1ccccn1)c1c[nH]cn1 (stereo not drawn) ?
a: 0.57

q: Proceed to Fc1c(Cl)cccc1C(c1ccccn1)c1cnc[nH]1 (stereo not drawn)
a: 0.49

q: Next: CC(C)c1ccc(C(c2c[nH]cn2)c2cccc(F)c2Cl)s1 (stereo not drawn)
a: 0.23
